Ratio IC50 overview
protocolDetails: Selectivity index, ratio of IC50 for HMEC1 to IC50 for Leishmania infantum MHOM/TN/80/IPT1
Hey, just send me the number, nothing else.

For orientation, consider the following solved cases.
# smilesString, Ratio IC50
data = [
    ("C[C@@H]1[C@H](O)[C@@H](C)/C=C/C=C/C=C/C=C/C=C/C=C/C=C/[C@H](O[C@@H]2O[C@H](C)[C@@H](O)[C@H](N)[C@@H]2O)C[C@@H]2O[C@](O)(C[C@@H](O)C[C@@H](O)[C@H](O)CC[C@@H](O)C[C@@H](O)CC(=O)O[C@H]1C)C[C@H](O)[C@H]2C(=O)O", 321),
    ("Cl.c1ccc(Nc2cc3nc4ccccc4n(-c4ccccc4)c-3c/c2=N/CCCCCCC23CCCCN2CCCC3)cc1", 5.4),
    ("c1ccc(Nc2cc3nc4ccccc4n(-c4ccccc4)c-3c/c2=N/CCC[C@@H]2CCCN3CCCC[C@H]23)cc1", 2.8),
]

// query Find the recorded Ratio IC50 belonging to Cl.Fc1ccc(Nc2cc3nc4ccccc4n(-c4ccc(F)cc4)c-3c/c2=N/CCCCC23CCCCN2CCCC3)cc1 and report it.
// result 4.1
